- Test system: CEM cells HIV-1 protection, formazan growth assay
- experiment_notes: NCI AIDS Antiviral Assay
pEC50: −log10 of the molar value.
observed_property: pEC50

Item: "O=C(/C(=C/c1ccc(Br)cc1)c1ccccc1)c1ccccc1" | pEC50: < 4.84

Item: "O=c1[nH]cc(SSc2c[nH]c(=O)[nH]c2=O)c(=O)[nH]1" | pEC50: 3.86

Item: CC(CN1CCCC1)C(O)(Cc1ccccc1)c1ccc(Cl)cc1 (stereo not drawn) | pEC50: < 3.70

Each molecule below has a reported value. Please supply its pEC50.
1. Nc1cccc2nnccc12
2. C[C@H]1C2=CC(=O)CC[C@@](C)(O2)[C@H]2CC[C@]3(C)[C@@H](O)CC[C@H]3[C@H]12

Reply text:
< 3.70
< 3.23

Each molecule below has a reported value. Please supply its pEC50.
1. N=C1C(=N)c2ccccc2-c2ccccc21
2. CC(C)NC(=O)OCc1c(COC(=O)NC(C)C)n(C)c2c1ccc1ccccc12
3. COC(=O)NC[C@@H]1OCc2cc3c(cc2[C@]12CC=CCC2)OCO3
4. Cc1cc(C)n(C(=C(C(Cl)=C(Cl)Cl)[N+](=O)[O-])n2nc(C)cc2C)n1
5. CC(C)C1CSC2N1C(=O)C2(OCc1ccccc1)C1CC1 (stereo not drawn)

Reply text:
1: < 3.70; 2: < 3.76; 3: < 3.97; 4: < 3.70; 5: < 3.70

Each molecule below has a reported value. Please supply its pEC50.
1. CC[C@@]12N=C(N(C)C)C[C@]1(O)ON=C2C
2. Cn1c(=O)[nH]c2c(c1=O)CCCS2
3. CCC(C)C(NC(=O)C(CCCCN)NC(=O)CNC(=O)C(NC(=O)C(NC(=O)C(NC(=O)C(Cc1ccccc1)NC(=O)C(C)NC(=O)C(CCCNC(=N)N)NC(=O)CNC(=O)C1CCCN1C(=O)CNC(=O)C(CCCNC(=N)N)NC(=O)C(CCC(N)=O)NC(=O)C(NC(=O)C(CCCNC(=N)N)NC(=O)C(NC(=O)C(COC1OC(CO)C(O)C(O)C1NC(C)=O)NC(=O)C(CCCCN)NC(=O)C(CCCNC(=N)N)NC(=O)C(NC(=O)C(CC(N)=O)NC(=O)C(N)CC(N)=O)C(C)O)C(C)CC)C(C)CC)C(C)C)C(C)OC1OC(CO)C(O)C(O)C1NC(C)=O)C(C)CC)C(=O)NCOC#N (stereo not drawn)
4. O=C(O)CCSCCCCCCCCCCCCSCCC(=O)O
5. COc1cc(/C=C(\C#N)c2ccc([N+](=O)[O-])cc2)ccc1O
6. NC1CNC(=O)c2c(Cl)sc(Cl)c21 (stereo not drawn)
7. COc1cc(-c2oc3c(OC)c(OC)c(OC)c(OC)c3c(=O)c2OC)cc(OC)c1OC
8. Nc1ccn(C2OC(CO)C(F)C2F)c(=O)n1 (stereo not drawn)

Reply text:
< 3.70
< 3.60
< 4.56
< 4.04
< 3.82
< 3.70
< 3.70
< 3.30
